System: KRas-mediated Phosphorylation of ERK in HCT116 cells
Assay: Cisbio HTRF pERK assay, HCT116 cells
Format: cell-based
Conditions: Homo sapiens, HCT-116, HCT116 cells, single point at 100 nM
Endpoint label: inhibition at 0.1 µM (%)
Field: numeric (%). Do not append units.

Compound | Target desc | Units label | inhibition at 0.1 µM
CCc1c(F)ccc2cc(O)cc(C3Cc4nc(OC[C@@]56CCCN5C[C@H](F)C6)nc(N5C[C@@H]6C[C@H](C5)[C@H](O)C6)c4CO3)c12 (some centres unmarked) | KRas-mediated Phosphorylation of ERK in HCT116 cells | % | -12
CCc1c(F)ccc2cc(O)cc(-c3c(F)cc4c(N5CCOCC(C)(O)C5)nc(OCC5(CN(C)C)CC5)nc4c3F)c12 (centres unmarked) | KRas-mediated Phosphorylation of ERK in HCT116 cells | % | 51
CCc1c(F)ccc2cc(O)cc(-c3c(F)cc4c(N5CCCC6(CCO6)C5)nc(OC[C@@]56CCCN5C[C@H](F)C6)nc4c3F)c12 (some centres unmarked) | KRas-mediated Phosphorylation of ERK in HCT116 cells | % | 45
CCc1c(F)ccc2cc(O)cc(-c3ccc4c(N5CCCC6(CNC(=O)N6)C5)nc(OCC5(CN(C)C)CC5)nc4c3F)c12 (centres unmarked) | KRas-mediated Phosphorylation of ERK in HCT116 cells | % | -22

# context switch: different compound, same inhibition at 0.1 µM
Give the measured inhibition at 0.1 µM of CCc1c(F)ccc2cc(O)cc(C3Cc4nc(OC[C@@]56CCCN5C[C@H](F)C6)nc(N5CCC[C@@](C)(O)C5)c4CO3)c12 (some centres unmarked) .
-12
